test system: P388 leukemia ip, CD2F1 mice, survival T/C; assay: NCI In Vivo Anticancer Drug Screen. Data for tumor model P388 Leukemia (intraperitoneal) in CD2F1 (CDF1) mice; details: endpoint: median survival time; dose: 100.0 mg/kg/injection; schedule: Q01DX001 (ip); vehicle: saline; higher = longer survival
Inconclusive results and toxic doses are left out.
measured.property: T/C

>>> result("O=C(NO)c1ccccc1")
"102 % of control"
>>> result("O=S(=O)(O)Oc1c(S(=O)(=O)O)c(S(=O)(=O)O)c(O)c(S(=O)(=O)O)c1S(=O)(=O)O")
"94 % of control"
>>> result("CCOC(=O)C1=Nc2ccccc2N=C(C2C(=O)C=C(C)OC2=O)C1 (configuration not stated)")
"108 % of control"
>>> result("Cc1ccc(S(=O)(=O)c2cncnc2N)cc1")
"101 % of control"
>>> result("CC(=O)NC(CC(C)C)C(=O)NC(CC(C)C)C(=O)NC(C=O)CCCN=C(N)N (configuration not stated)")
"106 % of control"
>>> result("O=C(c1ccccc1)c1nc(-c2ccccc2)oc1-c1ccccc1")
"100 % of control"
>>> result("O=c1[nH]c(=O)n(C2CC(O)C(CO)O2)cc1F (configuration not stated)")
"110 % of control"
>>> result("Cl.O=C([O-])C1C[SH+]C(C(O)C(O)C(O)C(O)CO)N1.O=C([O-])C1C[SH+]C(C(O)C(O)C(O)C(O)CO)N1.[Pd+2] (configuration not stated)")
"103 % of control"
>>> result("COP(=O)(O)NS(=O)(=O)c1ccccc1")
"101 % of control"
>>> result("O=C1CC2(CC(=O)NC2=O)C(=O)N1")
"100 % of control"
>>> result("CC(=O)Oc1c(I)cc(Cc2nc(C)oc2C)cc1I")
"99 % of control"
>>> result("CC(C)N(B1NCC(C)N1C(C)C)C(C)C (configuration not stated)")
"101 % of control"

---

system: P388 leukemia ip, CD2F1 mice, survival T/C; test: NCI In Vivo Anticancer Drug Screen. Data for tumor model P388 Leukemia (intraperitoneal) in CD2F1 (CDF1) mice; settings: endpoint: median survival time; dose: 100.0 mg/kg/injection; schedule: Q01DX005 (ip); vehicle: saline with Tween-80; higher = longer survival
Toxic doses and inconclusive results are not listed.
measured.property: T/C

>>> result("C(=N\\c1oc(-c2ccccc2)c(-c2ccccc2)c1-c1ccccc1)/c1ccccc1")
"88 % of control"
>>> result("CN(C)CCCN1CCC2(CCC(C(C)(C)C)CC2)CC1")
"116 % of control"
>>> result("O=C(c1ccccc1)c1cccc(C(=O)c2ccccc2)c1")
"95 % of control"
>>> result("CCOC(=O)CC1(O)CSC(=C(C(=O)OCC)C(=O)OCC)N1c1ccccc1 (stereo not drawn)")
"91 % of control"
>>> result("O=C(NC(=O)c1c(F)cccc1F)Nc1ccc(C(O)(C(F)(F)F)C(F)(F)F)cc1")
"100 % of control"
>>> result("CCOc1ccc(NC(=S)NC2OC(COC(C)=O)C(OC(C)=O)C(OC(C)=O)C2OC(C)=O)cc1 (stereo not drawn)")
"91 % of control"
>>> result("COC1C(Cl)CC(/C(=C\\C2CCCCC2)C(=O)O)CC1Cl (stereo not drawn)")
"103 % of control"
>>> result("O=[N+]1C=Cc2ccccc2C1=C1c2ccccc2C=CN1[O-]")
"103 % of control"
>>> result("Cn1nc2c(cc1=O)Cc1ccccc1-2")
"98 % of control"
>>> result("Clc1ccc(CN2CCCN(Cc3ccc(Cl)cc3)C2c2cc3ccccc3c3ccccc23)cc1")
"97 % of control"
>>> result("Cc1cc(N/N=C(\\c2ccccc2)c2ccccn2)nc2ccccc12")
"103 % of control"
>>> result("O=C1C=CC(=O)N1C(=O)NC(NC(=O)N1C(=O)C=CC1=O)c1ccc2c(c1)OCO2")
"95 % of control"
>>> result("CC(C)CC(CC(C)C)[N+](=O)[O-]")
"105 % of control"
>>> result("CC(=O)Nc1ccc(-c2csc(Nc3ccnc4cc(Cl)ccc34)n2)cc1")
"92 % of control"
>>> result("CCCCCC(C)N(C)C(=O)CNCC(C)C (stereo not drawn)")
"108 % of control"
>>> result("CC1N(C)c2cc([N+](=O)[O-])ccc2C1(C)C (stereo not drawn)")
"100 % of control"
>>> result("COc1ccc2c(c1)CCC1C2=CCS1(=O)=O (stereo not drawn)")
"94 % of control"
>>> result("CCCCn1cnc2c(=S)nc[nH]c21")
"105 % of control"
>>> result("Oc1cc2ccccc2c(-c2c(O)c(O)cc3ccccc23)c1O")
"112 % of control"
>>> result("CSc1nc(NC2OC(CO)C(O)C(O)C2O)c(C(=O)CCl)c(=O)n1C (stereo not drawn)")
"91 % of control"
>>> result("CCN(CC)CCOc1ccc(C)c(C)c1")
"103 % of control"
>>> result("CCOC(=O)C(=CNc1cccc(N(C)C)c1)C(=O)OCC")
"92 % of control"
>>> result("COC(=O)N1[C@@H]2C=CC=CC=C2[C@@H](OC)N1C(=O)OC")
"103 % of control"

---

tested on: P388 leukemia ip, CD2F1 mice, survival T/C; assay: NCI In Vivo Anticancer Drug Screen. Data for tumor model P388 Leukemia (intraperitoneal) in CD2F1 (CDF1) mice; conditions: endpoint: median survival time; dose: 400.0 mg/kg/injection; schedule: Q04DX003 (ip); vehicle: saline; higher = longer survival
Toxic doses and inconclusive results are not listed.
measured.property: T/C

>>> result("COc1ccc(C2CC(=O)N(c3nc(C)cc(C)n3)C(=O)C2)cc1")
"100 % of control"
>>> result("COc1ccc([N+](=O)[O-])c(C#N)c1")
"100 % of control"
>>> result("COc1ccc2c(c1OC)C(=O)OC2c1cc(Br)c(O)c(C2OC(=O)c3c2ccc(OC)c3OC)c1 (stereo not given)")
"87 % of control"
>>> result("N#C/C1=C(\\C#N)N=Cc2ccccc2NCCNc2ccccc2C=N1")
"100 % of control"
>>> result("O=C(O)c1c[nH]c2cc(OCc3ccc4ccccc4c3)ccc2c1=O")
"87 % of control"

---

tested on: P388 leukemia ip, CD2F1 mice, survival T/C; assay: NCI In Vivo Anticancer Drug Screen. Data for tumor model P388 Leukemia (intraperitoneal) in CD2F1 (CDF1) mice; conditions: endpoint: median survival time; dose: 200.0 mg/kg/injection; schedule: Q01DX009 (ip); vehicle: saline
Inconclusive results and toxic doses are left out. Rule for the calls: active = survival T/C of 150% or more; inactive = T/C below 125% in these data.
Outcome codes: active, inactive

>>> category("OCC1(O)OCC(O)C(O)C1O (stereo unspecified)")
"inactive"
>>> category("OCCN(CCO)CCCCCCN(CCO)CCO")
"inactive"
>>> category("Nc1cc(S(=O)(=O)O)c(Br)c(Br)c1Br")
"inactive"
>>> category("COC(OC(CO)C(O)S(=O)(=O)O)C(O)S(=O)(=O)O (stereo unspecified)")
"active"
>>> category("Clc1cnc(/N=C/c2ccc(/C=N/c3ncc(Cl)cc3Cl)cc2)c(Cl)c1")
"inactive"
>>> category("Cn1c([N+](=O)[O-])cnc1/C=[N+](\\[O-])CCO")
"inactive"
>>> category("CCC[CH2][Sn]([CH2]CCC)([O]C(C)=O)[c]1ccccc1")
"inactive"
>>> category("CCC(c1ccc(OCC(=O)NCCCl)cc1)C(CC)c1ccc(OCC(=O)NCCCl)cc1 (stereo unspecified)")
"inactive"
>>> category("CCOC(=O)C1=CCC(n2cc(F)c(=O)[nH]c2=O)O1 (stereo unspecified)")
"inactive"
>>> category("O=[N+]([O-])c1cc2c(cc1Br)C1C(C3C2C2(Cl)C(Cl)=C(Cl)C3(Cl)C2(Cl)Cl)C2(Cl)C(Cl)=C(Cl)C1(Cl)C2(Cl)Cl (stereo unspecified)")
"inactive"
>>> category("COC(=O)C(Br)C(Br)c1ccccc1 (stereo unspecified)")
"inactive"
>>> category("CC1CN(CCC#N)CC(C)O1 (stereo unspecified)")
"inactive"
>>> category("O=C(OC(c1ccccc1)c1ccccc1)c1ccccc1")
"inactive"
>>> category("CCCCCCCCCCSCC")
"inactive"
>>> category("COC(=O)c1ccc(/C=C/C#N)cc1")
"inactive"
>>> category("O=C(O)C1CSC(c2ccncc2)N1 (stereo unspecified)")
"inactive"
>>> category("[CH3][Ge]([CH3])[CH3].[CH3][Ge]([CH3])[CH3]")
"inactive"
>>> category("C=C(CC)C(=O)OCC")
"inactive"
>>> category("CCN1CCN(CCCl)C1=O")
"active"
>>> category("CN(C)CCCOC(=O)Cc1cccc2c(=O)cc(-c3ccccc3)oc12")
"inactive"
>>> category("N=C(N)SCc1csc(N)n1")
"inactive"
>>> category("CCOP(=O)(OCC)C1CCCN2CCc3cc(OC)c(OC)cc3C12 (stereo unspecified)")
"inactive"
>>> category("COc1cc2cc(=O)n(N)c(C)c2cc1OC")
"inactive"
>>> category("Cc1cccn2cnnc12")
"inactive"
>>> category("O=c1cc(CSc2ncnc3nc[nH]c23)[nH]c(=O)[nH]1")
"inactive"
>>> category("CCO/C=N\\Nc1ccc2nnc(Cl)n2n1")
"inactive"
